# method: In vitro cytotoxicity by MTT assay, HEK 293
# Assay type: cell-based, human
# condition-set: human, HEK 293 cells, 0.005 μM, read-out: % cytotoxicity (100 − % cell survival) of HEK 293 cell line
assay-metric: cytotoxicity at 72 h, 0.005 µM (%)
Answers are plain numbers, in %.

chemical-structure	measurement-units	cytotoxicity at 72 h, 0.005 µM
CC(=O)Nc1ccc(S(=O)(=O)Nc2nnc(S(=O)(=O)NC(=O)c3cccc([N+](=O)[O-])c3)s2)cc1	%	39.3
CC(=O)Nc1ccc(S(=O)(=O)Nc2nnc(S(=O)(=O)NC(=O)c3ccc(N)cc3)s2)cc1	%	30.5
Nc1ccc(S(=O)(=O)Nc2nnc(S(=O)(=O)NC(=O)c3cccc([N+](=O)[O-])c3)s2)cc1	%	33.2
Nc1nnc(S(=O)(=O)NC(=O)c2ccccc2N)s1	%	41.5
CC(=O)Nc1ccc(S(=O)(=O)Nc2nnc(S(=O)(=O)NC(=O)c3ccc([N+](=O)[O-])cc3)s2)cc1	%	39.1

Consider the molecule shown here: COc1cc(C=Nc2nnc(S(=O)(=O)NC(=O)c3ccccc3)s2)ccc1O What is its recorded cytotoxicity at 72 h, 0.005 µM?
25.4
